system: HeLa; test: Cytotoxicity against human HeLa cells assessed as reduction in cell viability after 72 hrs by WST8 assay; assay type: functional, cell-based
property.label: IC50 (µM)

# structure.notation, property.label, u, obs.value
data = [
    ("COC(=O)/C=C/c1cc(OC)c2c(c1)[C@@H](CO)[C@@H](c1ccc(O)c(OC)c1)O2", "IC50", "µM", 105),
    ("O=c1[nH]cc(F)c(=O)[nH]1", "IC50", "µM", 13.9),
    ("COC(=O)/C=C\\c1cc(OC)c2c(c1)[C@H](CO)[C@H](c1ccc(O)c(OC)c1)O2", "IC50", "µM", 103),
    ("COC(=O)/C=C\\c1cc(OC)c2c(c1)[C@@H](CO)[C@@H](c1ccc(O)c(OC)c1)O2", "IC50", "µM", 32.5),
    ("COC(=O)/C=C/c1cc(OC)c2c(c1)[C@H](CO)[C@@H](c1ccc(O)c(OC)c1)O2", "IC50", "µM", 90),
]

---

system: HeLa; experiment: Cytotoxicity against human HeLa cells assessed as reduction in cell viability after 72 hrs by WST8 assay; format: functional, cell-based

# structure.notation, IC50, µM
measured = [
    ("COC(=O)/C=C\\c1cc(OC)c2c(c1)[C@H](CO)[C@@H](c1ccc(O)c(OC)c1)O2", 78.8),
    ("COC(=O)/C=C/c1cc(OC)c2c(c1)[C@H](CO)[C@H](c1ccc(O)c(OC)c1)O2", 96.1),
    ("COC(=O)/C=C\\c1cc(OC)c2c(c1)[C@@H](CO)[C@H](c1ccc(O)c(OC)c1)O2", 87.3),
    ("COC(=O)/C=C/c1cc(OC)c2c(c1)[C@@H](CO)[C@H](c1ccc(O)c(OC)c1)O2", 21),
]

meta.source: ChEMBL document CHEMBL4118050
